- Tested on: U251 CNS
- ASSAY SUMMARY: NCI-60 one-dose screen, 48 h (100 = growth as untreated, 0 = no growth, -100 = all killed)
- EXPERIMENTAL CONDITIONS: 10 µM unless noted
The panel holds about 83,000 compounds, 20% with a hit somewhere; the sample as a whole holds those more often.
# Lookup of reported growth keyed by entry
Enter your answer as a number in %; do not include the unit.

The recorded growth for entry C=C1CC[C@@]2(C#N)[C@H]3[C@H](CC[C@@H]2C)[C@@H](C)C[C@@H](CC(C)(C)C#N)[C@H]13 equals 46.4

---

- Tested on: NCI-H522 lung
- ASSAY SUMMARY: NCI-60 one-dose screen, 48 h (100 = growth as untreated, 0 = no growth, -100 = all killed)
- EXPERIMENTAL CONDITIONS: 10 µM unless noted
This is part of a sample that, as a whole, favours compounds with a hit. Of some 83,000 tested, about 20% had one in any assay.
EXPERIMENTAL READOUT: growth (%)
Enter your answer as a number in %; do not include the unit.

Examples with their reported growth follow.
MOLECULE | UNITS TEXT | growth
COc1cc(C(=O)/C=C/c2sc(Cl)nc2Cl)cc(OC)c1OC | % | 33.6
Nc1nc(-c2cccc3ccccc23)cc2ccccc12 | % | -34.3
COc1cc(C(=O)/C=C/c2c(Cl)nc3sccn23)cc(OC)c1OC | % | 61.8
COc1cccc2nc3n(c12)C(c1c(F)cccc1F)SC3 (stereo not drawn) | % | 80.4
O=C(Nc1ccc(Br)cc1F)c1cc(Br)ccc1O | % | -7.77
Cc1nc(/N=C(\N)NC(=O)Nc2ccccc2Cl)sc1C | % | 18.6
CNc1ccc(Nc2cccc(C)c2)c2c1C(=O)c1ccccc1C2=O | % | 75.9
CCCCCCCCCCCCCCCCCCOc1ccccc1CC(=O)OCC[N+](CC)(CC)CC | % | 10.5

The recorded growth for entry O=C(Cc1ccc2c(c1)OCCO2)Nc1nc2ccc(F)cc2s1 equals 87.2

The recorded growth for entry Cc1oc2nc[nH]c(=O)c2c1C(=O)/C=C/c1ccc(Br)cc1 equals 13.9

---

- Tested on: NCI/ADR-RES ovarian
- ASSAY SUMMARY: NCI-60 one-dose screen, 48 h
- EXPERIMENTAL CONDITIONS: 10 µM unless noted
This is part of a sample that, as a whole, favours compounds with a hit. Of some 83,000 tested, about 20% had one in any assay. Calls of active or inactive are those of the source. The calls were made as follows: active = growth percent below 10; inactive = the rest.
Thanks in advance; please answer with one of these: active, inactive

Before answering, review these 5 worked examples.
COMPOUND | CAT
O=C(Nc1ccc(-c2nc(-c3cccc(OCCN4CCOCC4)c3)c(-c3ccnc(Br)c3)[nH]2)cc1)c1ccccc1 | inactive
CCCCNC(=O)Oc1ccc(/C(=C(\C)c2ccc(Cl)cc2)c2ccc(OCCN3CCCCC3)cc2)cc1 | inactive
O=c1[nH][n+](-c2ccc(Br)cc2)no1 | inactive
OC(c1ccccc1)C(NC(Cc1ccccc1)c1ccccc1)c1ccccc1 (stereo not given) | inactive
Cc1onc2c(-c3ccccc3)n[nH]c(=O)c12 | inactive

# fetch the recorded call for Cn1cc(C(=O)c2nc(-c3cn(C)c4ccc(F)cc34)no2)c2cc(F)ccc21 here
inactive

# fetch the recorded call for O=C(Oc1cccc2ccccc12)Oc1cccc2ccccc12 here
inactive

# fetch the recorded call for O=c1ccn(Cc2cn(-c3c4ccccc4nc4ccccc34)nn2)c(=O)[nH]1 here
inactive

# fetch the recorded call for C#C[C@]1(O)CC[C@H]2[C@@H]3CC=C4c5sc(Nc6ccccc6)nc5CC[C@]4(C)[C@H]3CC[C@@]21C here
inactive

# fetch the recorded call for COc1ccc(/C=C/c2c(C(=O)/C=C/c3ccc(C(F)(F)F)cc3)c(C)nc3ccccc23)cc1 here
active

---

- Tested on: HCT-15 colon
- ASSAY SUMMARY: NCI-60 one-dose screen, 48 h
- EXPERIMENTAL CONDITIONS: 10 µM unless noted
- Procedure: Growth inhibition of the HCT-15 human tumor cell line is measured as a screen for anti-cancer activity. Cells are grown in 96 well plates and exposed to the test compound for 48 hours. Compounds are tested at a single concentration, which is 10^-5 M for most compounds. The reported endpoint is percent growth (GI% or GIPRCNT), where numbers from 0 - 100% represent growth inhibition, and numbers from -100% - 0 represent cell death. For example, a value of 40 represents 60% growth inhibition. […]
This is part of a sample that, as a whole, favours compounds with a hit. Of some 83,000 tested, about 20% had one in any assay. Activity calls are given as the source filed them. Rule for the calls: active = growth percent below 10; inactive = the rest.
Thanks in advance; please answer with one of these: yes (1) for active, no (0) for inactive

Before answering, review these 3 worked examples.
COMPOUND | TEST SYSTEM | CAT
N#Cc1c(Nc2cccc(Cl)c2)sc(C(=O)c2cc3cc(Cl)ccc3o2)c1N | HCT-15 colon | no (0)
CCc1cccc2c1S/C(=C/c1ccc(OC)cc1)C2=O | HCT-15 colon | no (0)
COc1cc(C(=O)c2cnc(-c3cccc4[nH]ccc34)[nH]2)cc(OC)c1OC | HCT-15 colon | no (0)

# fetch the recorded call for Cc1ccc2c(-c3cc(-c4ccccc4)nc(N)c3C#N)cc(=O)oc2c1 here
no (0)

# fetch the recorded call for COc1nc2ccccc2cc1-c1nc2c(cnn2-c2ccc(Br)cc2)c(=O)[nH]1 here
no (0)

# fetch the recorded call for COc1ccc(/C=C(/C#N)n2nnc3cccc(F)c32)cc1 here
no (0)

# fetch the recorded call for O=C1CCC/C=C\C[C@H]2C=CC(=O)/C2=C/C[C@H](CCc2cccc(C(F)(F)F)c2)O1 here
yes (1)

# fetch the recorded call for O=C1NC(=O)C(c2ccccc2)(c2ccccc2)N1Cc1cn(-c2c3ccccc3nc3ccccc23)nn1 here
no (0)

# fetch the recorded call for Cc1ccc(C(=O)NCCNc2nccc(-c3c(-c4cccc(F)c4)nc4sccn34)n2)cc1 here
no (0)

# fetch the recorded call for O=[N+]([O-])c1ccccc1NCSc1ccc(Cl)cc1 here
no (0)

---

# Lookup of reported growth keyed by entry
- System: SF-295 CNS
- ASSAY SUMMARY: NCI-60 one-dose screen, 48 h (100 = growth as untreated, 0 = no growth, -100 = all killed)
- EXPERIMENTAL CONDITIONS: 10 µM unless noted
About 83,000 compounds went through this panel and 20% of them were active in at least one assay; those are over-represented in the sample as a whole.
Enter your answer as a number in %; do not include the unit.

COMPOUND | UNITS TEXT | growth
CCOC(=O)c1c(C)nc2c(c1N)CC(=O)N2Cc1ccc(F)cc1 | % | 95.3
NCCNc1nc2ccccc2c2c(=O)c3cccc(F)c3sc12 | % | 91.7
CCN(CC)CCNc1nc2ccccc2c2c(=O)c3cc(Cl)ccc3sc12 | % | 29.2
Cc1ccc(-c2nn(C)c(=O)c3noc(-c4ccc(C)cc4)c23)cc1 | % | 41.2
O=C(/C=C/c1cccc2ccccc12)c1ccc(NC(=O)c2ccccc2CN2C(=O)c3ccccc3C2=O)cc1 | % | 96.4

The recorded growth for entry O=C1c2cccc3cccc(c23)C(=O)N1Nc1nc(NC2CCCCC2)nc(N2CCOCC2)n1 equals 105

The recorded growth for entry COc1cccc(Cc2nn3cc(-c4ccccc4)nc3s2)c1 equals 103

The recorded growth for entry O=C1CSC(c2c(Cl)cccc2Cl)N1c1nc(Cl)cc(=O)[nH]1 (stereo not given) equals 91.3

The recorded growth for entry Cc1cccc2c3c(sc12)C(c1ccc(F)cc1)C(C#N)=C(N)O3 (stereo not given) equals 5.18

The recorded growth for entry NC1CCN(c2nc(Nc3cccc(C(F)(F)F)c3)c3c(=O)[nH]ccc3n2)CC1 equals -56.7

---

# Lookup of reported growth keyed by entry
- System: PC-3 prostate
- ASSAY SUMMARY: NCI-60 one-dose screen, 48 h (100 = growth as untreated, 0 = no growth, -100 = all killed)
- EXPERIMENTAL CONDITIONS: 10 µM unless noted
This is part of a sample that, as a whole, favours compounds with a hit. Of some 83,000 tested, about 20% had one in any assay.
Enter your answer as a number in %; do not include the unit.

Examples with their reported growth follow.
MOLECULE | growth / %
COc1ccc(C(=O)C(C)C)c2ccccc12 | 93.4
CCCCn1c(-c2ccc(C(=O)O/N=C(\N)c3ccc(OC)cc3)cc2)nc(-c2ccccc2)c1-c1ccccc1 | -7.41
COc1cc2cc(Oc3ccc(NC(=O)Nc4ccc(Cl)c(C(F)(F)F)c4)cc3)c(C)nc2cc1OCCN1CCOCC1 | 13
N#Cc1cccc(NC(=O)c2cc(-c3ccc(F)cc3F)ccc2O)c1 | 20.3

Tested on PC-3 prostate, the item N#Cc1c(-c2ccc(Cl)cc2)nc2c(c(-c3ccccc3)nn2-c2ccccc2)c1-c1ccc(O)cc1 showed growth equal to 12

Tested on PC-3 prostate, the item CCC(C)(c1cc(C(C)(C)C)c(O)c(C(C)(C)C)c1)c1cc(C(C)(C)C)c(O)c(C(C)(C)C)c1 showed growth equal to 101
